Each record here notes measured EC50.
# System under test: T1, human CXCR5 (human, UniProt P32302 1-372)
# T1 construct: whole, on cells; also called hu-CHO; CHO-CXCR5 cells
# T1 sequence (looked up): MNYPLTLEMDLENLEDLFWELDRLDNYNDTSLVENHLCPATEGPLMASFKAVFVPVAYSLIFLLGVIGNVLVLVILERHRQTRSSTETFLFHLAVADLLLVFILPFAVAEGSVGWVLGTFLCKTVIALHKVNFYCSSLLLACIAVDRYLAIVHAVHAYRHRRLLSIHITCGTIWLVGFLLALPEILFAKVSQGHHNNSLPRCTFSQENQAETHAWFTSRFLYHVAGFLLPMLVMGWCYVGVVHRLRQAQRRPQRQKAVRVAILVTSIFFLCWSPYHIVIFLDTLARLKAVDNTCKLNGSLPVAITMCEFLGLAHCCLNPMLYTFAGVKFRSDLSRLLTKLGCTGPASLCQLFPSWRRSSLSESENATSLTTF
# Protocol description: flow cytometry on CHO-CXCR5 cells, IgG titration
Numeric only. Scale: nM

Past entries and their recorded results:
## Input Would you mind telling me what EC50 value was observed for 16F8 (antibody, V domains shown, tested as human IgG) VH: EVQLLESGGGLVQPGGSLRLSCAASGFTFSSYGMHWVRQAPGKGLEWVAVISYDGSNKYYADSVKGRFTISRDNSKNTLYLQLNSLRAEDTAVYYCARGQNLDYWGQGTLVTVSS VL: QPVLTQPASVSGSPGQSITISCTGTSSDVGGYNYISWYQQHPGKAPKLMIYEVSNRPSGVSNRFSGSKSGNTASLTISGLQAEDEADYYCSSYRSSSTQVFGGGTKLTVL ?
## Output 3.6

## Input Another: 12D3 (antibody, V domains shown, tested as human IgG) VH: EVQLVESGGGLVKPGRSLRLSCAASGFTFSSYAMHWVRQAPGKGLEWVAVISYDGSNKYYADSVKGRFTISRDNSKNTLYLQMNSLRAEDTAVYYCARLRWLDYWGQGTLVTVSS VL: QPVLTQPASVSGSPGQSIAISCTGTSSDVGSNNRVSWYQQHPGKAPKLMIYEVDKRPSGVSNRFSGSKSGNTASLTISGLQAEDEADYYCGTWDSSLSAYVFGTGTKLTVL
## Output 1.3

## Input Another: 14D9 (antibody, V domains shown, tested as human IgG) VH: EVQLVESGGGVVQPGRSLRLSCAASGFTFSSYAMHWVRQAPGKGLEWVAVISYDGSNKYYADSVKGRFTISRDNSKNTLYLQMNSLRAEDTAVYYCARSAWLDSWGQGTLVTVSS VL: QAGLTQPHSVSGSPGQSVTISCTGTSSDVGSYNHVSWYQQHPGKAPKLMIYDVSKRPSGVSNRFSGSKSGNTASLTISGLQAEDEADYYCSSYTSSSTYVFGTGTKVTVL
## Output 22

## Input Another: 16A8 (antibody, V domains shown, tested as human IgG) VH: QVQLVESGGGVVQPGRSLRLSCAASGFTFSNYGMHWVRQAPGKGLEWVATISYDGSNNYYAASVKGRFTVSRDNSTLYLQMNSLRAEDTAVYYCAGAIAAAGVWGQGTLVTVSS VL: LPVLTQPASVSGSPGQSITISCTGTSSDVGGYNYVSWYQQHPGKAPKLMIYDVSNRPSGVSDRFSGSKSGNTASLNISGLQPDDEAEYYCSSYRTKNTLVFGGGTKLTVL
## Output 2.3

## Input Another: 11G3 (antibody, V domains shown, tested as human IgG) VH: EVQLVQSGGGVVQPGRSLRLSCAASGFTFSSYAMHWVRQAPGKGLEWVAVISYDGSNKYYADSVKGRFTISRDNSKNTLYLQMNSLRAEDTAVYYCARLTRGSDYYGSGRSMNDYWGQGTLVTVSS VL: DIVMTQTPLSLPVTLGQPASISCRSSQSLVHSDGNTYLNWFQQRPGQSPRRLIYKVSNRDSGVPDRFSGSGSGTDFTLKISRVEAEDVGVYYCMQGTHWPPTFGQGTKVEIK
## Output 2.6

New cases:
## Input Would you mind telling me what EC50 value was observed for 12D11 (antibody, V domains shown, tested as human IgG) VH: EVQLVQSGAEVKKPGASVKVSCKASGYTFTGYYLNWVRQAPGQGLEWMGWINPNNGGTNYAQRFQGRVTMTRDTSISTAYMDLSRLRSDDTAVYYCVRGTRKYYHDSNGRRRDYYYGMDVWGQGTTVTVSS VL: AIRMTQSPSSLSASVGDRVTITCRASQSISSYLNWYQQKPGKAPKLLIYAASSLQSGVPSKFSGSGSGTEFTLTISSLQPEDFATYYCQQYKFYPPNFGGGTKVEI ?
## Output 2.1

## Input Another: 16B7 (antibody, V domains shown, tested as human IgG) VH: QVQLVESGAEVKKPGASVKVSCKASGYTFTSYYVHWVRQAPGQGLEWMGIINPSGGTTSYAQKFQGRVTMTRDTSTSTVYMELSSLRSEDTAVYYCVRDRRVVAATTPSAFDVWGQGTMVTVSS VL: QSVVTQPPSVSAAPGQRVTISCSGSTSNIGSNYVSWYHQLPGTAPKLLVYHNDKRPSGIPDRFSGSKSGTSATLGITGLQTGDEADYYCGTWDSSLSVWVFGGGTKVTVL
## Output 88

## Input Another: 13G9 (antibody, V domains shown, tested as human IgG) VH: EVQLVESGGGVVQPGRSLRLSCAASGFTFSRYGMHWVRQSPGKGLEWVAGISYDGSDKYYADSVKGRFTISRANSKNTLFLQMNSLRAEDTAVYYCARARGLDYWGQGTTVTVSS VL: QAVLTQPASVSGSPGQSITISCTGTSSDIGSYNLVSWYQQHPGKAPKLIIYEVNKRPSGVSNRFSGSKSGNTASLTISGLQAEDEADYYCSSYRSINTVVFGGGTQLTVL
## Output 3

## Input Another: 52D6 (antibody, V domains shown, tested as human IgG) VH: EVQLLESGGGLVQPGRSLRLSCAASGFNFDAYAMHWVRQAPGKGLEWVSGISWNSGYIAYADSVEGRFAISRDNSKNTVFLQMNSLRAEDTAIYYCARDRWLSYWGQGTLVTVSS VL: QSVLTQPASVSGSPGQSITISCTGTSSDVGGYNYVSWYQQHPGKAPKLMIYDVSKRPSGVSNRFSGSKSGNTASLTVSGLQAEDEAEYYCSSYAGSNFVVFGGGTKLTVL
## Output 24

## Input Another: 14E5 (antibody, V domains shown, tested as human IgG) VH: EVQLVESGGGVVQPGRSLRLSCAASGFTFSSYGMHWVRQAPGKGLEWVAVISYDGSNKYYADSVKGRFTISRDNSKNTLYLQMNSLRAEDTAVYYCAKVYSRGSDYWGQGTLVTVSS VL: QSVLTQPASVSGSPGQSITISCTGTSSDVGGYNYVSWYQQHPGKAPKLLIYDVSRRPSGISSRFSGSKSGNTASLTISGLQTEDDGDYYCLSYTTSRAVVFGGGTKLTVL
## Output 0.3
